Values were extracted from paper PMC7615709.

target_under_test: FLAG-p7 (HCV p7, genotype 1b) (Hepatitis C virus isolate HC-J4)
Sequence (O92972 747-809 limits assumed): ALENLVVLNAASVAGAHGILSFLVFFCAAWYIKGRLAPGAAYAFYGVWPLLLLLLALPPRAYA
protocol_description: carboxyfluorescein release from liposomes, fluorimetry, initial rates
property_name: IC50

Value of IC50 reported for the compound NC12CC3CC(CC(C3)C1)C2 [amantadine] is ~2000 nM
